- System: AEA cellular uptake (U937 cells)
- experimental-protocol: [3H]-AEA cellular uptake inhibition in U937 cells
- Type: cell-based
- run-parameters: Homo sapiens, U-937, U937 cells, final 100 nM AEA with 0.5 nM [3H]-AEA, 15 min at 37° C.; read-out: AEA uptake inhibition IC50
pIC50: −log10 of the molar value.
readout-label: pIC50

O=C1/C(=C/c2ccc3nccnc3c2)S/C(=N\c2ccccc2)N1c1ccccc1 | 5.15

A = O=C1/C(=C/c2ccc3[nH]ccc3c2)S/C(=N\c2ccccc2)N1Cc1ccccc1
B = Cc1ccc(/N=C2\S/C(=C\c3ccccc3)C(=O)N2c2ccccc2)cc1
Select one. Lower pIC50: A or B The response must carry the label of the picked entry. B
(B: 5.49, A: 6.21)
